Numbers sourced from patent US8470810B2.

- EXPERIMENTAL_SYSTEM: human dopamine D2L receptors (long isoform) (Homo sapiens)
- PROTOCOL_DESCRIPTION: Dopamine D2L receptor binding, displacement of [125I] iodospiperone
- MEASUREMENT_PARAMETERS: membranes of HEK-293 cells stably expressing human D2L; 0.01 nM [125I] iodospiperone; 25° C., 60 minutes; read-out: Ki(D2)*
METRIC_NAME: Ki (nM)

[1] CCCN1CC[C@@H](c2ccc(NS(=O)(=O)c3ccc(CC(F)(F)F)cc3)cc2)C1
[2] CCCN1CCC(c2ccc(NS(=O)(=O)c3ccc(C(C)C)cc3)cn2)C1 (single isomer, unassigned; (-)) [Example 131]
[3] C=CCN1CC[C@H](c2ccc(NS(=O)(=O)c3ccc(C(C)C(F)(F)F)cc3)cc2)C1 (some centres unmarked)
Q) Hi! Can you put these in order of Ki, lowest number first? Answer by listing the labels in the requested order.
A) 1, 2, 3

[I] CCCN1CC[C@@H](c2ccc(NS(=O)(=O)c3ccc4c(c3)CCO4)cc2)C1
[II] CCCN1CC[C@@H](c2ccc(NS(=O)(=O)c3ccc(C(C)C(F)(F)F)cc3)cc2)C1 (some centres unmarked)
[III] CCCN1CC[C@@H](c2ccc(NS(=O)(=O)c3ccc(Cl)s3)cc2)C1
Q) Given 3 compounds, produce a descending ranking by Ki. Put the labels in the requested order and write them down.
A) III, I, II

====

- EXPERIMENTAL_SYSTEM: human dopamine D2L receptors (long isoform) (Homo sapiens, UniProt P14416)
- Construct: expressed in transfected cells
- Sequence (P14416 whole entry, canonical isoform): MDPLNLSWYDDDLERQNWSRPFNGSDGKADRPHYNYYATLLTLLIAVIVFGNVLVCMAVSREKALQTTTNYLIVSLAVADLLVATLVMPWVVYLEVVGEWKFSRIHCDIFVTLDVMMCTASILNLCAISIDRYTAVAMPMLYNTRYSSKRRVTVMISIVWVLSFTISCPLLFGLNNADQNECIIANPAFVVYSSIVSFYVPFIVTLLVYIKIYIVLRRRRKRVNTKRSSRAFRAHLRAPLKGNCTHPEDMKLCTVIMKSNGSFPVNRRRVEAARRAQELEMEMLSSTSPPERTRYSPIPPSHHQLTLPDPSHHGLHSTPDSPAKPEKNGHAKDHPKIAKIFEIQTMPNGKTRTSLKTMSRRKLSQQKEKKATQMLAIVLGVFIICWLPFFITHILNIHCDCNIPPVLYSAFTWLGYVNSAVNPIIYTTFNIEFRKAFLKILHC
- PROTOCOL_DESCRIPTION: Dopamine D2L receptor binding, displacement of [125I] iodospiperone
- MEASUREMENT_PARAMETERS: membranes of HEK-293 cells stably expressing human D2L; 0.01 nM [125I] iodospiperone; 25° C., 60 minutes; read-out: Ki(D2)*
pKi: −log10 of the molar value.
METRIC_NAME: pKi

# annotated cases, reported pKi shown
C[C@@H](CF)c1ccc(S(=O)(=O)Nc2ccc([C@@H]3CCNC3)cc2)cc1 | 6.05
CCCc1ccc(S(=O)(=O)Nc2ccc([C@@H]3CCN(CCC)C3)cc2)s1 | 7.57
CCCN1CC[C@@H](c2ccc(NS(=O)(=O)c3ccc(Br)cc3)cc2)C1.Cl [Example 25, hydrochloride] | 7.02
CC(C)c1ccc(S(=O)(=O)Nc2ccc(C3CCNC3)c(F)c2)cc1 (centres unmarked) | 6.97
CCCN1CC[C@@H](c2ccc(NS(=O)(=O)c3ccc(-c4cnn(C)c4)cc3)cc2)C1 | 5.93
CCCN1CC[C@@H](c2ccc(NS(=O)(=O)c3cc4ccccc4o3)cc2)C1 | 5.95

[A] C=C(C)c1ccc(S(=O)(=O)Nc2ccc([C@@H]3CCN(CCC)C3)cc2)cc1F
[B] CCCN1CC[C@@H](c2ccc(NS(=O)(=O)c3ccc(O)cc3)cc2)C1
[C] CCCN1CCC(c2ccc(NS(=O)(=O)c3ccc(C(C)C)cc3)cn2)C1 (centres unmarked) [Example 31]
[D] CCN1CC[C@@H](c2ccc(NS(=O)(=O)c3ccc(C(C)C)cc3)cc2)C1
[E] CCCN1CC[C@@H](c2ccc(NS(=O)(=O)c3ccc(C)cc3)cc2)C1.Cl [Example 10, hydrochloride]
Q) Order the items by recorded pKi; the first position goes to the largest value. Quick reminder: the answer is the labels in the order asked.
A) A, D, E, C, B
